test system: A2780 cells; assay: In-vitro cell proliferation assay (SRB, 72 hours); assay type: cell-based; settings: Homo sapiens, sulforhodamine B (SRB) assay
pIC50: −log10 of the molar value.
Below is a list of entries, each paired with its recorded pIC50 value.

mol	pIC50
COCc1ccc(C(=O)N2CCC(CCCCNC(=O)c3ccc4nccn4c3)CC2)nc1	7.17
O=C(NCCCCC1CCN(C(=O)c2ccc(F)cc2F)CC1)c1ccc2nccn2c1	7.59
CC(C)Oc1ccc(C(=O)N2CCC(CCCCNC(=O)c3ccc4nccn4c3)CC2)cc1	7.68
O=C(NCCCCC1CCN(C(=O)c2ccc(OC(F)(F)F)cc2)CC1)c1cc2cnccc2[nH]1	7.90
CC(=O)N1CCC(C(=O)N2CCC(CCCCNC(=O)c3cc4cnccc4[nH]3)CC2)CC1	7.62
COc1ncc(Cl)cc1C(=O)N1CCC(CCCCNC(=O)c2ccc3nccn3c2)CC1	8.48
O=C(NCCCCC1CCN(C(=O)c2cc3ccccc3s2)CC1)c1cc2cnccc2[nH]1	7.16
COc1ccc(C(=O)N2CCC(CCCCNC(=O)c3ccc4nccn4c3)CC2)cc1F	7.19
CC(C)S(=O)(=O)N1CCC(CCCCNC(=O)c2cc3cnccc3[nH]2)CC1	7.64
O=C(NCCCCC1CCN(C(=O)c2cc3ccccc3[nH]2)CC1)c1cc2cnccc2[nH]1	7.22
O=C(NCCCCC1CCN(C(=O)c2ccoc2)CC1)c1cc2cnccc2[nH]1	8.00
Cc1nc(C(=O)N2CCC(CCCCNC(=O)c3cc4cnccc4[nH]3)CC2)cs1	7.60
O=C(NCCCCC1CCN(C(=O)c2ccoc2)CC1)c1ccc2nccn2c1	7.59
Cc1cccc(C(=O)N2CCC(CCCCNC(=O)c3ccc4nccn4c3)CC2)c1F	7.90
Cc1nc(CC(=O)N2CCC(CCCCNC(=O)c3cc4cnccc4[nH]3)CC2)cs1	7.86

###

test system: A2780 cells; assay: In-vitro cell proliferation assay (SRB, 72 hours); assay type: cell-based; settings: Homo sapiens, sulforhodamine B (SRB) assay
pIC50: −log10 of the molar value.

mol	experimentalSystem	pIC50
O=C(NCCCCC1CCN(C(=O)c2cc3ccccc3s2)CC1)c1ccc2nccn2c1	A2780 cells	7.14
O=C(NCCCCC1CCN(C(=O)c2ccc(OC(F)F)cc2)CC1)c1ccc2nccn2c1	A2780 cells	7.00
O=C(NCCCCC1CCN(C(=O)c2ccc(-n3cccn3)cc2)CC1)c1cc2cnccc2[nH]1	A2780 cells	7.87
O=C(NCCCCC1CCN(C(=O)C2CCCCC2)CC1)c1cc2ccncc2s1	A2780 cells	7.14
CCOc1ncccc1C(=O)N1CCC(CCCCNC(=O)c2cc3cnccc3[nH]2)CC1	A2780 cells	9.22

###

test system: A2780 cells; experiment: In-vitro cell proliferation assay (SRB, 72 hours); type: cell-based; conditions: Homo sapiens, sulforhodamine B (SRB) assay
Below is a list of entries, each paired with its recorded IC50 value.

mol	unitOfMeasure	IC50
CSc1ncccc1C(=O)N1CCC(CCCCNC(=O)c2cc3cnccc3[nH]2)CC1	nM	0.7
CCOc1cccc(C(=O)N2CCC(CCCCNC(=O)c3ccc4nccn4c3)CC2)c1	nM	13.2
CCOc1ccccc1C(=O)N1CCC(CCCCNC(=O)c2cc3cnccc3[nH]2)CC1	nM	0.5
O=C(NCCCCC1CCN(C(=O)c2ccc3cc[nH]c3c2)CC1)c1cc2ccncc2s1	nM	70.3
CCOc1ccccc1C(=O)N1CCC(CCCCNC(=O)c2cc3ccncc3s2)CC1	nM	0.6
O=C(NCCCCC1CCN(C(=O)c2ccc(N3CCOCC3)nc2)CC1)c1cc2ccncc2s1	nM	13.1
O=C(NCCCCC1CCN(C(=O)c2ccccc2)CC1)c1cc2cnccc2[nH]1	nM	1.4
O=C(NCCCCC1CCN(C(=O)c2cccc(F)c2)CC1)c1cc2ccncc2s1	nM	7.4
